Exercise: state measured GLP1 secretion stimulation for each of the molecules provided.
# test-protocol: glucagon-like peptide 1 release enhancers, primary assay, NCI-H716 cell line, NPC library (AID 1117341)
# condition-notes: NCI-H716 cells, at 10 µM, hits give high values
Numbers only, in %.

{"columns": ["molecule", "result"],
 "data": [
  ["O=C(Nc1ccc(Br)cc1)c1cc(Br)cc(Br)c1O", -3.5]
]}

For each of the molecules below, note its GLP1 secretion stimulation.
1. CC1=C(C(=O)O)N2C(=O)[C@@H](N)[C@H]2SC1
2. CCCCCCCCCCCC[N+](C)(C)CCOc1ccccc1
3. CC(Cc1ccc2c(c1)OCO2)NCC(O)c1ccc(O)c(O)c1 (stereo unspecified)
4. N[C@@H]1C[C@H]1c1ccccc1
5. O=C1C2CC=CCC2C(=O)N1SC(Cl)(Cl)Cl (stereo unspecified)

4.2
67
-2
3.6
0.3

---

Exercise: state measured remaining activity for each of the molecules provided.
# System: Aerobactin synthetase IucA (Klebsiella pneumoniae, hypervirulent)
# test-protocol: IucA enzyme inhibition, biochemical, LOPAC library, absorbance readout (AID 1346212);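 further: 100% = no compound wells and 0% = no enzyme wells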
# condition-notes: IucA enzyme assay, absorbance (OD) readout; hits give low values; concentration not given here
Numbers only, in %.

The cases that follow already have their remaining activity on record.
{"columns": ["molecule", "endpoint-unit", "remaining activity"],
 "data": [
  ["Cc1cc(NC(=O)Nc2ccc3c(ccn3C)c2)sn1", "%", 122],
  ["OC[C@H]1NC[C@H](O)[C@@H](O)[C@@H]1O", "%", 100],
  ["FC(F)(F)c1ccccc1-n1ccnc1", "%", 102]
]}

For each of the molecules below, note its remaining activity.
1. O=C(O)C1=CCNCC1
2. CCC(=O)c1ccc2c(c1)N(CCCN(C)C)c1ccccc1S2
3. C/C(=C\c1ccc(C(=O)O)cc1)c1ccc2c(c1)C(C)(C)CCC2(C)C

1: 95.2; 2: 88.8; 3: 97.8

For each of the molecules below, note its remaining activity.
1. COc1cc2nc(N3CCN(C(=O)C4COc5ccccc5O4)CC3)nc(N)c2cc1OC (stereo not drawn)
2. CC[C@H](CO)Nc1nc(NCc2ccccc2)c2ncn(C(C)C)c2n1

1: 92.2; 2: 123

For each of the molecules below, note its remaining activity.
1. c1ccc2c(CC3=NCCN3)cccc2c1
2. O=C(O)/C=C1\CCCc2ccccc2C1O (stereo not drawn)
3. COc1ccc(CN(CCN(C)C)c2ccccn2)cc1
4. CCCN1CCc2cccc3c2[C@H]1Cc1ccc(O)c(O)c1-3

1: 115; 2: 119; 3: 112; 4: 109

For each of the molecules below, note its remaining activity.
1. Cc1cnc(C(=O)NCCc2ccc(S(=O)(=O)NC(=O)NC3CCCCC3)cc2)cn1
2. COC(=O)C1=C(C)NC(C)=C(C(=O)OC(C)(C)CN(C)CCC(c2ccccc2)c2ccccc2)C1c1cccc([N+](=O)[O-])c1 (stereo not drawn)
3. NCCCCN=C(N)N
4. Cn1c(=O)c2[nH]c(-c3ccc(S(=O)(=O)O)cc3)nc2n(C)c1=O

81
109
111
117

---

# test-protocol: ovarian cancer cell viability with rucaparib, profiling panel, oncology-focused library, rucaparib conditional (AID 1508598)
# condition-notes: patient-derived ovarian cancer cells, CellTiter-Glo viability, 144 h; at 0.0781 µM; OCI-C5x cells; with rucaparib 10 µM; 100% = cells with rucaparib alone
Activity calls are given as the source filed them.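 The calls were made as follows: active = normalized viability below 100% at a tested concentration; inactive = the rest.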
I would appreciate it if you answered using one of these outcomes: t for active, f for inactive

{"columns": ["molecular-string", "class-assignment"],
 "data": [
  ["Cn1c(CCCC(=O)O)nc2cc(N(CCCl)CCCl)ccc21", "f"],
  ["CC(C)[C@@]12O[C@@H]1[C@@H]1O[C@]13[C@]1(O[C@@H]1C[C@@H]1C4=C(CC[C@@]13C)C(=O)OC4)[C@@H]2O", "t"]
]}

--- query ---
What call does the record list for "C/C(=C\c1csc(C)n1)[C@H]1C[C@@H]2O[C@]2(C)CCC[C@H](C)[C@H](O)[C@@H](C)C(=O)C(C)(C)[C@H](O)CC(=O)O1" ?
t

Hello, the source for this data is PubChem BioAssay, in case you need it.
